TESTED ON: casein kinase 1 delta (CKIδ) (Homo sapiens)
Sequence (P48730 whole entry): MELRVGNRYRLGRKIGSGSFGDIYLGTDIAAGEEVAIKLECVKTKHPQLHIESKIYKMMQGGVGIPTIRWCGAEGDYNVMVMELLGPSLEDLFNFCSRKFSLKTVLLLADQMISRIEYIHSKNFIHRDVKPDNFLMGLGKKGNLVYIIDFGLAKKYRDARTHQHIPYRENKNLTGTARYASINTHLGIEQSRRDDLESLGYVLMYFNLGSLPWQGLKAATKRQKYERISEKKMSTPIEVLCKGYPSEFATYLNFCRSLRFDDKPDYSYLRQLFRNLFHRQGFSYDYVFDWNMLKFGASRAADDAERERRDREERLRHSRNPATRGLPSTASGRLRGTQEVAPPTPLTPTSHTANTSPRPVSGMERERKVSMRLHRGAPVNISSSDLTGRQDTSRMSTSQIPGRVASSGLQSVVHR
MEASUREMENT DESCRIPTION: in vitro kinase assay IC50
Format: biochemical
MEASURED PROPERTY: IC50
Write the numeric value and append its unit.

Q: Endpoint output: IC50 of Cc1cc2sc(NC(=O)Cc3ccccc3)nc2cc1Cl . Value?
Result: 290 nM

----------
TESTED ON: UniProt:P49674
Sequence (P49674 whole entry): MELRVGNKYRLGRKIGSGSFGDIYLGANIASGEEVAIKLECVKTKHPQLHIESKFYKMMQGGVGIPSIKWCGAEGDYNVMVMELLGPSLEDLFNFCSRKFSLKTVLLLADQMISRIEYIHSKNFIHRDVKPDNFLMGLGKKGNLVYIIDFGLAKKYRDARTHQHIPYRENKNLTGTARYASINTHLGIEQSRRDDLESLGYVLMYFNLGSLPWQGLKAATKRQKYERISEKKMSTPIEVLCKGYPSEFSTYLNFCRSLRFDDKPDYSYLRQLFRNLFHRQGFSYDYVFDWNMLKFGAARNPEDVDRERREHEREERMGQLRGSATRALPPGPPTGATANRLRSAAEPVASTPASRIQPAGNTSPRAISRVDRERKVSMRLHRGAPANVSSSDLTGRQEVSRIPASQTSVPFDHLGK
MEASURED PROPERTY: IC50

Q: Endpoint output: IC50 of Cc1cc2sc(NC(=O)Cc3ccccc3)nc2cc1Cl . Value?
Result: 1300 nM

----------
TESTED ON: CKIα (Homo sapiens, UniProt P48729)
Sequence (P48729 2-337): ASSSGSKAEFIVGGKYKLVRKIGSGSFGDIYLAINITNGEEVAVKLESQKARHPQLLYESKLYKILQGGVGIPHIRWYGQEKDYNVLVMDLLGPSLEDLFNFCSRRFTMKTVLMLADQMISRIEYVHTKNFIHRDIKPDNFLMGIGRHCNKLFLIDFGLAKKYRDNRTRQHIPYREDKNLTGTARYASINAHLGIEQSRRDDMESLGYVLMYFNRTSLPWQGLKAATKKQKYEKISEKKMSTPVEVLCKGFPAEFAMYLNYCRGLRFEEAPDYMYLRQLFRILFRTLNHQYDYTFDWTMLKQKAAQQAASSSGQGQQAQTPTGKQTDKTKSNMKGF
MEASUREMENT DESCRIPTION: in vitro kinase assay
Format: biochemical
MEASURED PROPERTY: IC50 (µM)
Write down the numeric answer in µM and omit the unit.

Q: Endpoint output: IC50 of Cc1cc2sc(NC(=O)Cc3ccccc3)nc2cc1Cl [LH846] . Value?
Result: 2.5
